Values from paper PMC3961306

Test System: panel of more than 300 wild-type and mutant kinases (313 kinase panel) (Homo sapiens)
Test Details: Kinase profiling in a biochemical assay panel (mobility shift assays and ELISA), %-inhibition at 1 μM; selectivity entropy
Experimental Context: kinase MSSK1; 1 μM
Reported Metric: %-inhibition of MSSK1 (%)
Please reply with the bare figure in % and do not write the unit itself.

{"Molecule": "N#CC[C@H](C1CCCC1)n1cc(-c2ncnc3[nH]ccc23)cn1", "Units Label": "%", "%-inhibition of MSSK1": 6}

Please turn your attention to the following entry.
Provide one value: measured %-inhibition of MSSK1 of COc1cc2c(Nc3ccc(Br)cc3F)ncnc2cc1OCC1CCN(C)CC1
-4.37

---

Test System: panel of more than 300 wild-type and mutant kinases (313 kinase panel) (Homo sapiens)
Test Details: Kinase profiling in a biochemical assay panel (mobility shift assays and ELISA), %-inhibition at 1 μM; selectivity entropy
Experimental Context: kinase NEK4; 1 μM
Reported Metric: %-inhibition of NEK4 (%)
Please reply with the bare figure in % and do not write the unit itself.

Look over these answered cases.
{"Structure String": "CO[C@H]1C[C@@H]2CC[C@@H](C)[C@@](O)(O2)C(=O)C(=O)N2CCCC[C@H]2C(=O)O[C@H]([C@H](C)C[C@@H]2CC[C@@H](OCCO)[C@H](OC)C2)CC(=O)[C@H](C)/C=C(\\C)[C@@H](O)[C@@H](OC)C(=O)[C@H](C)C[C@H](C)/C=C/C=C/C=C/1C", "%-inhibition of NEK4, %": 0.832}
{"Structure String": "Cc1nc(Nc2ncc(C(=O)Nc3c(C)cccc3Cl)s2)cc(N2CCN(CCO)CC2)n1", "%-inhibition of NEK4, %": 1.17}
{"Structure String": "CC(=O)Nc1cccc(-n2c(=O)n(C3CC3)c(=O)c3c(Nc4ccc(I)cc4F)n(C)c(=O)c(C)c32)c1", "%-inhibition of NEK4, %": 2}
{"Structure String": "Cc1ccc(Nc2nccc(N(C)c3ccc4c(C)n(C)nc4c3)n2)cc1S(N)(=O)=O", "%-inhibition of NEK4, %": 12}
{"Structure String": "CNC(=O)c1cc(Oc2ccc(NC(=O)Nc3ccc(Cl)c(C(F)(F)F)c3)c(F)c2)ccn1", "%-inhibition of NEK4, %": -4}

Please turn your attention to the following entry.
Provide one value: measured %-inhibition of NEK4 of N#CC[C@H](C1CCCC1)n1cc(-c2ncnc3[nH]ccc23)cn1
-6

---

Test System: panel of more than 300 wild-type and mutant kinases (313 kinase panel) (Homo sapiens, UniProt P29323)
Test Details: Kinase profiling in a biochemical assay panel (mobility shift assays and ELISA), %-inhibition at 1 μM; selectivity entropy
Experimental Context: kinase EPHB2; compound at 1 μM
Known %-inhibition of EPHB2 of a selection of molecules
Please reply with the bare figure in % and do not write the unit itself.

Look over these answered cases.
{"Molecule": "CO[C@H]1C[C@@H]2CC[C@@H](C)[C@@](O)(O2)C(=O)C(=O)N2CCCC[C@H]2C(=O)O[C@H]([C@H](C)C[C@@H]2CC[C@@H](OC(=O)C(C)(CO)CO)[C@H](OC)C2)CC(=O)[C@H](C)/C=C(\\C)[C@@H](O)[C@@H](OC)C(=O)[C@H](C)C[C@H](C)/C=C/C=C/C=C/1C", "Val": -5.66}
{"Molecule": "N#CC[C@H](C1CCCC1)n1cc(-c2ncnc3[nH]ccc23)cn1", "Val": 5.54}
{"Molecule": "C[C@@H](Oc1cc(-c2cnn(C3CCNCC3)c2)cnc1N)c1c(Cl)ccc(F)c1Cl", "Val": 57}

Please turn your attention to the following entry.
Provide one value: measured %-inhibition of EPHB2 of COc1cc(Nc2c(C#N)cnc3cc(OCCCN4CCN(C)CC4)c(OC)cc23)c(Cl)cc1Cl
95
